Biological target: T1, Fus1, P11710
T1 sequence (P11710 432-512, looked up): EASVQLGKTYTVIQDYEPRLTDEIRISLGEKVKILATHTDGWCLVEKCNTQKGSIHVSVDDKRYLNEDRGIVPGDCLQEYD
Assay: SPOT array
Conditions: median of control spots 1200
measurement-label: SPOT intensity

The examples below pair each entry with its known result.
| binder | measurement-label | reported-result |
| --- | --- | --- |
| MSPLGAPPPPPHKDH | SPOT intensity | 0 |
| NLKKRPPTAPQRKIS | SPOT intensity | 8 |
| PSRRAPLQLPQLVNK | SPOT intensity | 0 |

(P) KKEKKPPKIPKKVYT
(Q) RKQRSIPLSPIVPES
(R) TTAPALPSLPPPPLL
(S) EAEEAAPQLPSRSSA
(T) NVLRKILEIPLHSFS
Query: I would appreciate it if you could sort these 5 binders by SPOT intensity, starting from the smallest number. I would appreciate it if you listed the labels in the requested order.
Result: R, S, P, Q, T
(R: 0, S: 1, P: 3, Q: 17, T: 35)
